Attribution: patent US20210139545A1

# Retained Cytb562-StrepII per immobilized mutein relative to mutein “1” per entry
Molecular target: T1, cytochrome b562 with C-terminally fused Strep-tagII (E. coli)
T1 construct: also called Cytb562-StrepII; Cytb562-StrepIII
Assay: affinity chromatography, overloaded Sepharose column, washed, biotin elution
Answer with a number only, understood to be in %.

Worked examples follow.
| binder | experimentalValue |
| --- | --- |
| mutein m4001 (designed binder, Library 2 clone) EAGITGTWYNQLGSTFIVTAGADGALTGTYACGRGNAECRYVLTGRYDSAPATDGSGTALGWTVAWKNNYRNAHSATTWSGQYVGGAEARINTQWLLTSGTTEANAWKSTLVGHDTFTKVKPSAAS | 127 |
| mutein“1”-m4 (designed binder, Library 3 clone on mutein “1”) EAGITGTWYNQLGSTFIVTAGADGALTGTYVTARGNAESRYVLTGRYDSAPATDGSGTALGWTVAWKNNYRNAHSATTWSGQYVGGAEARINTQWLLTSGTTEDNAGFSTLVGHDTFTKVKPSAAS | 280 |
| mutein“1”-m212 (designed binder, Library 6 clone on mutein “1”, 118 and 119 deleted) EAGITGTWYNQLGSTFIVTAGADGALTGTYVTARGNAESRYVLTGRYDSAPATDGSGTALGWTVAWKNNYRNAHSATTWSGQYVGGAEARINTQWLLTSGTTEHWLSTLVGHDTFTKVKPSAAS | 197 |
| mutein“1”-m23 (designed binder, Library 3 clone on mutein “1”) EAGITGTWYNQLGSTFIVTAGADGALTGTYVTARGNAESRYVLTGRYDSAPATDGSGTALGWTVAWKNNYRNAHSATTWSGQYVGGAEARINTQWLLTSGTTEYNAYASTLVGHDTFTKVKPSAAS | 245 |
| mutein“1”-m301 (designed binder, Library 7 clone on mutein “1”, 118 and 119 deleted) EAGITGTWYNQLGSTFIVTAGADGALTGTYVTARGNAESRYVLTGRYDSAPATDGSGTALGWTVAWKNNYRNAHSATTWSGQYVGGAEARINTQWLLTSGTTEHWMSTLVGHDTFTKVKPSAAS | 225 |

QUERY: I'd like to know its Retained Cytb562-StrepII per immobilized mutein relative to mutein “1”. The binder in question is mutein“1”-m207 (designed binder, Library 6 clone on mutein “1”, 118 and 119 deleted) EAGITGTWYNQLGSTFIVTAGADGALTGTYVTARGNAESRYVLTGRYDSAPATDGSGTALGWTVAWKNNYRNAHSATTWSGQYVGGAEARINTQWLLTSGTTETWLSTLVGHDTFTKVKPSAAS
RESULT: 229

QUERY: // lookup Retained Cytb562-StrepII per immobilized mutein relative to mutein “1” for mutein“1”-m302 (designed binder, Library 7 clone on mutein “1”, 118 and 119 deleted) EAGITGTWYNQLGSTFIVTAGADGALTGTYVTARGNAESRYVLTGRYDSAPATDGSGTALGWTVAWKNNYRNAHSATTWSGQYVGGAEARINTQWLLTSGTTEHWYSTLVGHDTFTKVKPSAAS
RESULT: 221

QUERY: What measured Retained Cytb562-StrepII per immobilized mutein relative to mutein “1” goes with mutein“1”-m41 (designed binder, Library 3 clone on mutein “1”) EAGITGTWYNQLGSTFIVTAGADGALTGTYVTARGNAESRYVLTGRYDSAPATDGSGTALGWTVAWKNNYRNAHSATTWSGQYVGGAEARINTQWLLTSGTTEAWYSTLVGHDTFTKVKPSAAS ?
RESULT: 155

QUERY: Dear colleague, I am looking for the recorded Retained Cytb562-StrepII per immobilized mutein relative to mutein “1” of the following binder: mutein m402 (designed binder, Library 1 clone) EAGITGTWYNQLGSTFIVTAGADGALTGTYACARGNAECRYVLTGRYDSAPATDGSGTALGWTVAWKNNYRNAHSATTWSGQYVGGAEARINTQWLLTSGTTEANAWKSTLVGHDTFTKVKPSAAS
RESULT: 111

QUERY: What value of Retained Cytb562-StrepII per immobilized mutein relative to mutein “1” has been reported for the following binder? mutein“1”-m45 (designed binder, Library 3 clone on mutein “1”) EAGITGTWYNQLGSTFIVTAGADGALTGTYVTARGNAESRYVLTGRYDSAPATDGSGTALGWTVAWKNNYRNAHSATTWSGQYVGGAEARINTQWLLTSGTTEYNAGFSTLVGHDTFTKVKPSAAS
RESULT: 308
